Where these numbers come from: paper PMC4336329

# system_name: human ether-à-go-go-related gene (hERG) potassium channel (human)
# Sequence (Q12809 whole entry, looked up): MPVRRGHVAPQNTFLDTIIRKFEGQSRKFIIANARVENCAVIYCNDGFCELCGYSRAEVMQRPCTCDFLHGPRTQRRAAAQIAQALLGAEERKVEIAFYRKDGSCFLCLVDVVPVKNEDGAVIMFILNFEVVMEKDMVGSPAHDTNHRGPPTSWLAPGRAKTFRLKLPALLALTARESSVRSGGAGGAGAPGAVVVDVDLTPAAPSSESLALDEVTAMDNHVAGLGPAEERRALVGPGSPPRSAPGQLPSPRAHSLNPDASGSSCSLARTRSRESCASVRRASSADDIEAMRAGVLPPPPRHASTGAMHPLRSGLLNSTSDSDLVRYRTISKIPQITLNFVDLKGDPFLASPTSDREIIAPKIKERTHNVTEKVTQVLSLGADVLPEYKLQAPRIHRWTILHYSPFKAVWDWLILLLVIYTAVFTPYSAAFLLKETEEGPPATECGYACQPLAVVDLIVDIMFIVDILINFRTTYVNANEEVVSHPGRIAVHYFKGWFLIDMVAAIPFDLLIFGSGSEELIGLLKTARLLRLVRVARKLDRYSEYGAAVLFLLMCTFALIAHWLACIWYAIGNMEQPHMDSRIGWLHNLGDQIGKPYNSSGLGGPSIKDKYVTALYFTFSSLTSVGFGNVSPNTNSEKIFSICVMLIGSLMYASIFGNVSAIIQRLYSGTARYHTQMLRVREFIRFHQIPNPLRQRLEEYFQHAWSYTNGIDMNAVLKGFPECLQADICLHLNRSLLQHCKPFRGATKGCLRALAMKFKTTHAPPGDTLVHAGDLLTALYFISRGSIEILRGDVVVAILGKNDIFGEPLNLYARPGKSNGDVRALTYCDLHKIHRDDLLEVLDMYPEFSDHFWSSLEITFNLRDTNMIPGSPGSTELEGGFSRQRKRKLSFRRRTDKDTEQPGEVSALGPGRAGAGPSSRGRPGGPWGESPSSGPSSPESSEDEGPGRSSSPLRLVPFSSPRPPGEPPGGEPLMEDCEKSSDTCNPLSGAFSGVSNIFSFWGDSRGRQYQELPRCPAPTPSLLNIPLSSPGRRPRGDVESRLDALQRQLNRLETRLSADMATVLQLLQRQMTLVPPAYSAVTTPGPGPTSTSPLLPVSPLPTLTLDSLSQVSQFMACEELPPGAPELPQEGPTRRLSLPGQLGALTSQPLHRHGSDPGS
# procedure_details: primary screen, population patch clamp on CHO cells stably expressing hERG; higher = less effect of the substance
Hit rate of the full screen: of about 310,000 compounds, about 2,200 (0.71%) showed an effect of 50% or more. Effects have a minus sign here. Many of the other results were omitted from the sample, so strong results are more common in it than they were.
Here the recorded hERG current change (%, negative = inhibition) at 1uM is given for each entry.
Reply with just the number (in %).

The examples below pair each entry with its known result.
Ask | For human ether-à-go-go-related gene (hERG) potassium channel (human), give hERG current change (%, negative = inhibition) at 1uM of the listed compound: CCc1ccc2[nH]c(=O)c(CN(CCN(CC)CC)C(=O)NC3CCCCC3)cc2c1
Reply | -51.5

Ask | Report its hERG current change (%, negative = inhibition) at 1uM with human ether-à-go-go-related gene (hERG) potassium channel (human) as the test system: COc1ccc(F)cc1C(=O)C1CCCN(Cc2c[nH]c3ccccc23)C1 (stereo not shown)
Reply | -18.6

Others:
Ask | Give hERG current change (%, negative = inhibition) at 1uM; test system human ether-à-go-go-related gene (hERG) potassium channel (human); compound COc1cccc(C(=O)C2CCCN(C/C=C/c3ccccc3OC)C2)c1 (stereo not shown)
Reply | -2.82

Ask | Using human ether-à-go-go-related gene (hERG) potassium channel (human) as the test system, report measured hERG current change (%, negative = inhibition) at 1uM of Cc1cc(OCC(=O)NC(Cc2c[nH]c3ccc(O)cc23)C(=O)O)c2c(C)c(C)c(=O)oc2c1 (stereo not shown) .
Reply | 14.5

Ask | Enter measured hERG current change (%, negative = inhibition) at 1uM, system human ether-à-go-go-related gene (hERG) potassium channel (human), for the compound shown: O=[N+]([O-])c1ccc(N2CCN(c3ccccc3Cl)CC2)cn1
Reply | -10

Ask | GET hERG current change (%, negative = inhibition) at 1uM | system: human ether-à-go-go-related gene (hERG) potassium channel (human) | item: O=C(CN1CCN(c2ccc([N+](=O)[O-])cc2)CC1)c1ccccc1
Reply | -9.94

Ask | Under human ether-à-go-go-related gene (hERG) potassium channel (human), report hERG current change (%, negative = inhibition) at 1uM for COc1ccc(C(=O)NCCN2CCN(C(=O)c3ccc(OC)c(OC)c3)CC2)cc1OC
Reply | 13.2

Ask | Provide hERG current change (%, negative = inhibition) at 1uM, system human ether-à-go-go-related gene (hERG) potassium channel (human), entry COc1ccc(OCCN2CCN(C(=O)c3ccc(OC)cc3)CC2)cc1
Reply | -90.6

Ask | Under human ether-à-go-go-related gene (hERG) potassium channel (human), report hERG current change (%, negative = inhibition) at 1uM for Cc1ccc(CCNC(=O)c2ccc3nc4ccccc4c(=O)n3c2)cc1
Reply | 14.3

* * *

The entries below are paired with their reported hERG current change (%, negative = inhibition) at 1uM.
# system_name: human ether-à-go-go-related gene (hERG) potassium channel (human)
# procedure_details: primary screen, population patch clamp on CHO cells stably expressing hERG; higher = less effect of the substance
Among all 310,000 compounds or so, about 2,200 (0.71%) showed an effect of 50% or more. Effects have a minus sign here. The sample as a whole holds a higher share of strong results than the screen did.
All answers are understood in %, so give the number only.

Ask | State measured hERG current change (%, negative = inhibition) at 1uM of the compound CCCc1cc(=O)[nH]c(SCC(=O)N(C)C2CCCCC2)n1 with human ether-à-go-go-related gene (hERG) potassium channel (human).
Reply | 13.3

Ask | Output reported hERG current change (%, negative = inhibition) at 1uM of the compound COc1cc(OC)cc(C(=O)NC(=S)Nc2nnn(C)n2)c1 on human ether-à-go-go-related gene (hERG) potassium channel (human).
Reply | 13

Ask | State recorded hERG current change (%, negative = inhibition) at 1uM with human ether-à-go-go-related gene (hERG) potassium channel (human), entry COc1ccc(C(=O)NC(=S)N2CC(C)OC(C)C2)cc1OC (stereo not drawn) , no comment.
Reply | 7.44

Ask | Write hERG current change (%, negative = inhibition) at 1uM of Cc1ccc(NC(=O)CSc2sc3c(O)cc(=O)[nH]c3c2C#N)c(F)c1 ; system used: human ether-à-go-go-related gene (hERG) potassium channel (human)
Reply | -4.66

Ask | Lab note: record hERG current change (%, negative = inhibition) at 1uM of CN1C(=O)c2ccccc2C(C(=O)O)C1c1cccc(Cl)c1 (stereo not drawn) tested on human ether-à-go-go-related gene (hERG) potassium channel (human).
Reply | 8.65

Further cases:
Ask | Retrieve hERG current change (%, negative = inhibition) at 1uM on human ether-à-go-go-related gene (hERG) potassium channel (human); query N#C/C(=C1\CCCN1)c1ccc2ccccc2n1
Reply | 8.93
